The following sequences are shown together with reported PBM binding z-score values.
tested on: PPARg homodimer (NR concentration 180 nM); assay: PBM binding z-score (relative to random genomic background probes); higher = stronger binding; sequences stand for … in GC…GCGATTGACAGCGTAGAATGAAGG
Returns: the value as a bare number; no unit string appended.

Sample answers from the record:
Give its PBM binding z-score value. Item: ATATGTAGGTTGCATCCGGGTCATTCAGGCTATG
0.466

Give its PBM binding z-score value. Item: TATACAGGGCCAAAGGCCAGAGTACGAATGTCGA
0.362

Give its PBM binding z-score value. Item: GCTGCTAGGTCAGGTTGGTTAGCTAACGGGTACG
0.608

Give its PBM binding z-score value. Item: GTACCAACGTGAATAGGTCGTTGATGAGTAGGCG
-0.374

Give its PBM binding z-score value. Item: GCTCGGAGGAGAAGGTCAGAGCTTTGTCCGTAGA
0.184

Continuing:
Give its PBM binding z-score value. Item: CCTACAGGGCCATTCAGAGGTCATTGATCATATG
1.96

Give its PBM binding z-score value. Item: CAAACTATGTCAAGAGGTCAAAGTCCGCTTCCCG
4.01

Give its PBM binding z-score value. Item: TCTACCAGGCCAGAGGGTCACTCAAGAGGTACGG
1.12
